# Test Target: Muscarinic acetylcholine receptor (Rattus norvegicus) (UniProt P08482+P08483+P08485+P08911+P10980)
# Protocol Summary: Percentage inhibition of field stimulated contraction guinea pig ileum (parasympatholytic activity)in presence of test compound (4 mg/L)
# Type: functional, tissue-based
# Protocol Conditions: Cavia porcellus, target entry is the homologue from another species
Category | rule: reported inhibition within range, see 1 (below 10%), 2 (10% to below 50%), 3 (50% or more)

Some entries whose results are on file:
INSERT INTO assay_data (smiles_data, class_assignment) VALUES
  ('Oc1c(CN2CCCC2)cc(CNc2nnc(Cl)c3ccccc23)cc1CN1CCCC1', 3),
  ('COc1nnc(Nc2cc(CN3CCCC3)c(O)c(CN3CCCC3)c2)c2ccccc12', 3),
  ('CN(C)Cc1cc(Nc2nncc3ccccc23)cc(CN(C)C)c1O', 2),
  ('Nc1cc(CN2CCCC2)c(O)c(CN2CCCC2)c1', 1),
  ('Oc1c(CN2CCCC2)cc(Nc2ccncc2)cc1CN1CCCC1', 1),
  ('Oc1c(CN2CCCC2)cc(Nc2ccnc3cc(Cl)ccc23)cc1CN1CCCC1', 2),
  ('Oc1c(CN2CCCC2)ccc(Nc2ncnc3ccccc23)c1CN1CCCC1', 2),
  ('Oc1c(CN2CCCC2)cc(Nc2ccc(Cl)nn2)cc1CN1CCCC1', 2),
  ('Oc1ccc(Nc2ccc3ccccc3n2)cc1CN1CCCC1', 3),
  ('Oc1c(CN2CCCC2)cc(Nc2ccnc3cc(C(F)(F)F)ccc23)cc1CN1CCCC1', 2);

Switching to the query record.
INPUT: Band of Oc1ccc(Nc2ncnc3ccccc23)cc1 ?
OUTPUT: 2
